assay: Cytotoxicity in human C8166 cells; assay type: cell-based
Endpoint Name: CC50

1. COc1cc(OC)c(OC)cc1/C=C/[N+](=O)[O-] ... 4.7 µM
2. Cc1ccc(/C=C/[N+](=O)[O-])cc1 ... 15.2 µM
3. O=[N+]([O-])/C=C/c1ccccc1 ... 13.6 µM
4. O=[N+]([O-])/C=C/c1ccccc1Br ... 0.57 µM
5. CC(=O)N/C=C/c1ccccc1F ... 341 µM

What value of measured CC50 is listed for O=[N+]([O-])/C=C/c1ccccc1Cl ?
3 µM

What value of measured CC50 is listed for Cc1cc(C)c(/C=C/[N+](=O)[O-])cc1C ?
6.9 µM

What value of measured CC50 is listed for O=[N+]([O-])/C=C/c1cccc(Cl)c1 ?
4.6 µM

What value of measured CC50 is listed for CC(=O)N(C)/C=C/c1ccccc1Br ?
> 787 µM

What value of measured CC50 is listed for COc1ccc(/C=C/[N+](=O)[O-])c(OC)c1 ?
5.4 µM

----------
Quick reference for CC50 among some molecules
assay: Cytotoxicity in human C8166 cells; assay type: cell-based
Numeric answer only, unit µM assumed.

1) CC(=O)N(C)/C=C/c1ccccc1Cl ... 441
2) Cc1ccccc1/C=C/[N+](=O)[O-] ... 7.4
3) O=[N+]([O-])/C=C/c1ccsc1 ... 25.5
4) CC(=O)N(C)/C=C/c1cccc(Br)c1 ... 409

What value of measured CC50 is listed for O=[N+]([O-])/C=C/c1ccc2ccccc2c1 ?
40.6

----------
test: Therapeutic index, Ratio of CC50 for human C8166 cells to EC50 for HIV1; type: cell-based; conditions: read-out: TI
Endpoint Name: selectivity ratio
Output spec: single numeric token, no unit.

What value of measured selectivity ratio is listed for CC(=O)N/C=C/c1ccccc1Br ?
1.8

What value of measured selectivity ratio is listed for CC(=O)N(C)/C=C/c1ccccc1C ?
5.2

What value of measured selectivity ratio is listed for CC(=O)N/C=C/c1cccc(Br)c1 ?
1.5

What value of measured selectivity ratio is listed for CC(=O)N(C)/C=C/c1cccc(Br)c1 ?
3.2

What value of measured selectivity ratio is listed for CC(=O)N(C)/C=C/c1ccccc1Cl ?
4.6

What value of measured selectivity ratio is listed for CC(=O)N/C=C/c1ccccc1Cl ?
2.4

What value of measured selectivity ratio is listed for CC(=O)N(C)/C=C/c1ccccc1F ?
5.6

What value of measured selectivity ratio is listed for CC(=O)N/C=C/c1ccc2ccccc2c1 ?
3.1

What value of measured selectivity ratio is listed for CC(=O)N/C=C/c1ccccc1C ?
1

----------
Quick reference for CC50 among some compounds
experiment: Cytotoxicity in human C8166 cells; format: cell-based
Numeric answer only, unit µM assumed.

A selection of reference data follows.
1) CC(=O)N/C=C/c1cccc(Br)c1 ... 134
2) COc1ccccc1/C=C/[N+](=O)[O-] ... 5
3) CC(=O)N/C=C/c1ccc2ccccc2c1 ... 154
4) CC(=O)N(C)/C=C/c1ccccc1C ... 609
5) CC(=O)N/C=C/c1ccccc1Cl ... 297
6) CC(=O)N/C=C/c1ccccc1Br ... 241
7) O=[N+]([O-])/C=C/c1ccccc1O ... 18.8
8) O=[N+]([O-])/C=C/c1ccccc1F ... 2.8
9) O=[N+]([O-])/C=C/c1ccc(Br)cc1 ... 13.6
10) O=[N+]([O-])/C=C/c1ccco1 ... 28.9

What value of measured CC50 is listed for COc1ccc(/C=C/[N+](=O)[O-])cc1 ?
6.3

What value of measured CC50 is listed for O=[N+]([O-])/C=C/c1cccc2ccccc12 ?
39.6

Values compiled from ChEMBL document CHEMBL1145437.
